- Experiment notes: NCI Yeast Anticancer Drug Screen. Data for the rad50 strain (AID 155);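 note: 0% = growth of vehicle-only cultures of the same strain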
- Condition label: S. cerevisiae rad50 strain growth inhibition; at 50.0 µM; active compounds read high
Compounds without any hit were thinned out: in the full panel of roughly 79,000, 15% have a hit.
Measure name: growth inhibition (%)

| Compound | Measure name | Observed value |
| --- | --- | --- |
| ClC(c1ccccc1)(c1ccccc1)C(Cl)(c1ccccc1)c1ccccc1 | growth inhibition | 45.9 |
| O=[N+]([O-])c1ccc(C=Nc2ccc3c(c2)Cc2ccccc2-3)cc1 | growth inhibition | -7.7 |
| COc1ccc(NC2C(=O)C3(C)CCC2C3(C)C)cc1 (configuration not stated) | growth inhibition | -17.2 |
| C(#Cc1ccccc1)/C=C/C(=C\c1ccccc1)c1ccccc1 | growth inhibition | 6.6 |
| CC1CN(c2ccccc2)NC1=O (configuration not stated) | growth inhibition | 0.4 |
| O=C(O)CCC(=O)Nc1ccc(F)cc1 | growth inhibition | 9.9 |
| CCCCCCCCCCCCCC(=O)N(CCCCCCCCC)CC(O)C(O)C(OC1OC(CO)C(O)C(O)C1O)C(O)CO (configuration not stated) | growth inhibition | -13.8 |
| O=NC1CC=CC1Cl (configuration not stated) | growth inhibition | 18.6 |
| CC(C)(C)OC(=O)c1cccc(C(=O)OC(C)(C)C)c1 | growth inhibition | 0.6 |
| CCOC(=O)NC(=S)Nc1nonc1-c1ccccc1 | growth inhibition | 1.35 |
| COC(=O)CCCCCCCCC(C)C(C)=O (configuration not stated) | growth inhibition | -34.8 |
| CCOC(=O)C1=C(NC(=O)C(c2ccccc2)c2ccccc2)OCC1 | growth inhibition | 4.7 |
